# tgt: T1, human IL-4Rα (human, UniProt P24394 26-232)
# T1 construct: also called Hu IL-4Rα; hIL-4Rα
# T1 sequence: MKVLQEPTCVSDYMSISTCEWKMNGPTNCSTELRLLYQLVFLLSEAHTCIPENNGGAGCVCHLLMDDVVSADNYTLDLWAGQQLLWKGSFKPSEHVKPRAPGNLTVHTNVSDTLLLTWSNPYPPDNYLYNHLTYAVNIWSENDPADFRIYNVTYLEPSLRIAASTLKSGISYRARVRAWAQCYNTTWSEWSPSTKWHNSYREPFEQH
# procedure.details: KinExA
property.measured: Kd (pM)
Respond numerically; units are pM and should not be typed.

{"binder": "Construct 38 (mAb471) (antibody, IgG4, V domains shown, VH/VL only) VH: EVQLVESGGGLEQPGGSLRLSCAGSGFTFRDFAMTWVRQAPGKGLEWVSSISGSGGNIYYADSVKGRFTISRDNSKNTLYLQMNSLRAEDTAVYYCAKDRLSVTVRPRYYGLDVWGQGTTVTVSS VL: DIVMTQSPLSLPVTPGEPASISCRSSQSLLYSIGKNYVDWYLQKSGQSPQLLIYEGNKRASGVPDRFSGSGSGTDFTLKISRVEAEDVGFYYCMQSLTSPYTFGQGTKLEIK", "Kd, pM": 0.421}
{"binder": "Construct 24 (mAb432) (antibody, IgG4, V domains shown, VH/VL only) VH: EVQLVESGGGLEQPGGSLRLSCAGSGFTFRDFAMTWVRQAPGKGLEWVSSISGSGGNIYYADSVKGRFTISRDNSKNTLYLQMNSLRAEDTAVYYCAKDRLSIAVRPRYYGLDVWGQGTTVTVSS VL: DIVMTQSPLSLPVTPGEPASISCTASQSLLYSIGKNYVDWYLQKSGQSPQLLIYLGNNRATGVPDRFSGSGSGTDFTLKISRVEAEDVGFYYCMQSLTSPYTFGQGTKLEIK", "Kd, pM": 0.118}
{"binder": "Construct 13 (mAb422) (antibody, IgG4, V domains shown, VH/VL only) VH: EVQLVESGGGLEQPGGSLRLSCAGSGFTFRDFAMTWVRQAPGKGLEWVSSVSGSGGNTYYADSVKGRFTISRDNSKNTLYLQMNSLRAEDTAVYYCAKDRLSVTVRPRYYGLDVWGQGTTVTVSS VL: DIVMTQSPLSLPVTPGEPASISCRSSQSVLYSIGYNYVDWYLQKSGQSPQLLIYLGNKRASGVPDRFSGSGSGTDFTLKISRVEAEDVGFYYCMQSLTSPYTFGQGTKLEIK", "Kd, pM": 0.299}
{"binder": "Construct 15 (mAb423) (antibody, IgG4, V domains shown, VH/VL only) VH: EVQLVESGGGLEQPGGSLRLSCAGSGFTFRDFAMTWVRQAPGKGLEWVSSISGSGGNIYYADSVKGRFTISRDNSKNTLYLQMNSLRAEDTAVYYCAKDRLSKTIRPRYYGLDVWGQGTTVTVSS VL: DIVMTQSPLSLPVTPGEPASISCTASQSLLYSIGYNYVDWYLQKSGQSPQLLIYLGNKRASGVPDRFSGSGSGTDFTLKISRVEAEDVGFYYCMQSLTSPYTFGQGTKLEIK", "Kd, pM": 0.0109}

Please find the next binder below.
In: Recorded Kd of Construct 31 (mAb443) (antibody, IgG4, V domains shown, VH/VL only) VH: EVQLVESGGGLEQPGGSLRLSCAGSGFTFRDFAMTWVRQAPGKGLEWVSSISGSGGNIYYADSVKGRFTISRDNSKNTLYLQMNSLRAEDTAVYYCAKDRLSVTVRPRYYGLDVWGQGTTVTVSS VL: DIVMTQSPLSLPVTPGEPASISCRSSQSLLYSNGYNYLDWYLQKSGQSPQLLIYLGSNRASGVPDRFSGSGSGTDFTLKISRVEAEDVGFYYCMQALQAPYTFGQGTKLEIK , please.
Out: 0.282
